assay: Binding affinity to gallium ion assessed as accounting ratio by measuring total compound detected/total compound adsorbed at 2.55 umol by immobilized metal-ion affinity chromatography; conditions: dose 2.55 µmol
Class (required): determined from Ratio; valid ranges are bottom bin (below 0.7), middle bin (0.7 to below 1), top bin (1 or more)

Solved entries (count: 2):
- C[C@H](CSC(=O)c1ccccc1)C(=O)N1C[C@@H](Sc2ccccc2)C[C@H]1C(=O)O: top bin
- O=C(CCCCCCC(=O)Nc1ccccc1)NO: bottom bin

Task: Which Ratio band matches NCCCC[C@H](N[C@@H](CCc1ccccc1)C(=O)O)C(=O)N1CCC[C@H]1C(=O)O ?
Output: middle bin

Task: Moving on to the next compound: O=C(O)c1cc(/N=N/c2ccc(S(=O)(=O)Nc3ccccn3)cc2)ccc1O
Output: middle bin

Task: What do you have for O=c1cccccc1O ?
Output: bottom bin

Task: Next record, please: O=C(N[C@H]1CCS[C@H]2CCC[C@@H](C(=O)O)N2C1=O)[C@@H](S)Cc1ccccc1
Output: bottom bin

###

experiment: Binding affinity to Nickel cation assessed as performance ratio ratio by measuring product of accounting ratio and retention ratio at 2.55 umol by immobilized metal-ion affinity chromatography; conditions: dose 2.55 µmol
Measurement name: Ratio

Example cases with answers are listed next.
* CC(=O)Nc1ccc(C(=O)Nc2ccccc2N)cc1 | 0.01
* C[C@H](N[C@@H](CCc1ccccc1)C(=O)O)C(=O)N1CCC[C@H]1C(=O)O | 0
* C[C@H](CSC(=O)c1ccccc1)C(=O)N1C[C@@H](Sc2ccccc2)C[C@H]1C(=O)O | 0.01
* NCCCC[C@H](N[C@@H](CCc1ccccc1)C(=O)O)C(=O)N1CCC[C@H]1C(=O)O | 0

Task: I would be grateful if you could share the reported Ratio for O=c1cccccc1O .
Output: 0.7

Task: Likewise for O=C(CCCCCCC(=O)Nc1ccccc1)NO ?
Output: 1.14

Task: Cool, now Nc1ccc(C(=O)O)c(O)c1
Output: 0

Task: Lookup O=C(N[C@H]1CCS[C@H]2CCC[C@@H](C(=O)O)N2C1=O)[C@@H](S)Cc1ccccc1
Output: 0.19

Task: Please do the same for O=C(/C=C/c1cccc(S(=O)(=O)Nc2ccccc2)c1)NO as well.
Output: 1.08

Task: Let us now turn to Nc1ccccc1NC(=O)c1ccc(CNC(=O)OCc2cccnc2)cc1
Output: 0.21

Task: Try this compound next: COc1c(N2C[C@@H]3CCCN[C@@H]3C2)c(F)cc2c(=O)c(C(=O)O)cn(C3CC3)c12
Output: 0.89

###

assay: Binding affinity to cupric ion assessed as retention ratio by measuring compound detected in elution fraction/total compound detected at 2.55 umol by immobilized metal-ion affinity chromatography; settings: dose 2.55 µmol
Measurement name: Ratio
Could you respond with only the numeric value?

Task: Requested field: Ratio. Item: O=c1cccccc1O
Output: 1

Task: Try C[C@H](CS)C(=O)N1CCC[C@H]1C(=O)O next.
Output: 0

Task: Next record, please: Cc1ccc(Cl)c(Nc2ccccc2C(=O)O)c1Cl
Output: 0

###

assay: Binding affinity to cupric ion assessed as retention ratio by measuring compound detected in elution fraction/total compound detected at 2.55 umol by immobilized metal-ion affinity chromatography; conditions: dose 2.55 µmol
Each entry below lists one item and its recorded Ratio value.
Please give the numeric answer without any surrounding text.

// worked examples, Ratio included
- O=C(O)c1cc(/N=N/c2ccc(S(=O)(=O)Nc3ccccn3)cc2)ccc1O: 0.63
- Nc1ccc(C(=O)O)c(O)c1: 0
- C[C@H](N[C@@H](CCc1ccccc1)C(=O)O)C(=O)N1CCC[C@H]1C(=O)O: 0
- O=C(CCCCCCC(=O)Nc1ccccc1)NO: 0.61

# ---- query compound ----
Task: Report Ratio for CC(=O)Nc1ccc(C(=O)Nc2ccccc2N)cc1 please.
Output: 0

###

experiment: Binding affinity to ferric ion assessed as accounting ratio by measuring total compound detected/total compound adsorbed at 2.55 umol by immobilized metal-ion affinity chromatography; conditions: dose 2.55 µmol
Label key: yes (1) means Ratio under 0.9; no (0) means Ratio of 0.9 or more.

- Nc1ccc(C(=O)O)c(O)c1: yes (1)
- O=C(CCCCCCC(=O)Nc1ccccc1)NO: yes (1)
- Nc1ccccc1NC(=O)c1ccc(CNC(=O)OCc2cccnc2)cc1: no (0)
- C[C@H](CSC(=O)c1ccccc1)C(=O)N1C[C@@H](Sc2ccccc2)C[C@H]1C(=O)O: no (0)

Task: Quick check: does Cc1[nH]c2ccccc2c1CCNCc1ccc(/C=C/C(=O)NO)cc1 have Ratio under 0.9?
Output: yes (1)

Task: Next up: O=C(/C=C/c1cccc(S(=O)(=O)Nc2ccccc2)c1)NO
Output: yes (1)

Task: Another molecule to check: C[C@H](CS)C(=O)N1CCC[C@H]1C(=O)O
Output: yes (1)

Task: What do you get for O=C(N[C@H]1CCS[C@H]2CCC[C@@H](C(=O)O)N2C1=O)[C@@H](S)Cc1ccccc1 ?
Output: yes (1)

Task: And the next one, Cc1ccc(Cl)c(Nc2ccccc2C(=O)O)c1Cl ?
Output: no (0)

Task: Moving on to the next molecule: O=c1cccccc1O
Output: yes (1)

Task: And what about the molecule O=C(O)c1cc(/N=N/c2ccc(S(=O)(=O)Nc3ccccn3)cc2)ccc1O ?
Output: yes (1)

Task: Another molecule to look at: CC(=O)Nc1ccc(C(=O)Nc2ccccc2N)cc1
Output: no (0)

Task: Continue with C[C@H](N[C@@H](CCc1ccccc1)C(=O)O)C(=O)N1CCC[C@H]1C(=O)O
Output: no (0)

Task: Also CC1(C)Cc2c(-c3ccccc3)c(-c3ccc(Cl)cc3)c(CC(=O)O)n2C1 , if possible.
Output: no (0)

Task: Field entry: COc1c(N2C[C@@H]3CCCN[C@@H]3C2)c(F)cc2c(=O)c(C(=O)O)cn(C3CC3)c12
Output: yes (1)

###

assay: Binding affinity to Nickel cation assessed as retention ratio by measuring compound detected in elution fraction/total compound detected at 2.55 umol by immobilized metal-ion affinity chromatography; settings: dose 2.55 µmol
Listed here are molecules together with their documented Ratio.
In your answer, state the number alone without any accompanying words.

Below are worked cases with known answers.
* Cc1[nH]c2ccccc2c1CCNCc1ccc(/C=C/C(=O)NO)cc1 | 1
* Cc1ccc(Cl)c(Nc2ccccc2C(=O)O)c1Cl | 0
* O=C(N[C@H]1CCS[C@H]2CCC[C@@H](C(=O)O)N2C1=O)[C@@H](S)Cc1ccccc1 | 1
* Nc1ccc(C(=O)O)c(O)c1 | 0
* COc1c(N2C[C@@H]3CCCN[C@@H]3C2)c(F)cc2c(=O)c(C(=O)O)cn(C3CC3)c12 | 1

API: the following record is the query input.
Task: Reported Ratio, molecule C[C@H](CS)C(=O)N1CCC[C@H]1C(=O)O : ____
Output: 0

###

assay: Binding affinity to Zinc ion assessed as retention ratio by measuring compound detected in elution fraction/total compound detected at 2.55 umol by immobilized metal-ion affinity chromatography; details: dose 2.55 µmol
Measurement name: Ratio
Number only, please.

Some compounds with known Ratio results, for comparison:
* Nc1ccc(C(=O)O)c(O)c1 | 0
* Nc1ccccc1NC(=O)c1ccc(CNC(=O)OCc2cccnc2)cc1 | 0.01
* O=C(O)c1cc(/N=N/c2ccc(S(=O)(=O)Nc3ccccn3)cc2)ccc1O | 0.79

Task: What does the data say about its Ratio? Entry: O=C(N[C@H]1CCS[C@H]2CCC[C@@H](C(=O)O)N2C1=O)[C@@H](S)Cc1ccccc1
Output: 1

###

test: Binding affinity to Gallium ion assessed as retention ratio by measuring compound detected in elution fraction/total compound detected at 2.55 umol by immobilized metal-ion affinity chromatography; conditions: dose 2.55 µmol
Ratio values, listed per item
Reply with the value as a number alone.

Take a look at these entries with their results.
• COc1c(N2C[C@@H]3CCCN[C@@H]3C2)c(F)cc2c(=O)c(C(=O)O)cn(C3CC3)c12 = 0.14
• Cc1[nH]c2ccccc2c1CCNCc1ccc(/C=C/C(=O)NO)cc1 = 0

Task: Which Ratio is reported for this compound? O=C(N[C@H]1CCS[C@H]2CCC[C@@H](C(=O)O)N2C1=O)[C@@H](S)Cc1ccccc1
Output: 0

Task: Entry C[C@H](N[C@@H](CCc1ccccc1)C(=O)O)C(=O)N1CCC[C@H]1C(=O)O please
Output: 0

Task: Item: Cc1ccc(Cl)c(Nc2ccccc2C(=O)O)c1Cl
Output: 0

Task: Request: Nc1ccccc1NC(=O)c1ccc(CNC(=O)OCc2cccnc2)cc1
Output: 0.01

Task: Note, next up: Nc1ccc(C(=O)O)c(O)c1
Output: 0.74

Task: # iterate: C[C@H](CSC(=O)c1ccccc1)C(=O)N1C[C@@H](Sc2ccccc2)C[C@H]1C(=O)O
Output: 0.01

###

Readings of Ratio for the listed compounds
test: Binding affinity to Ferric ion assessed as performance ratio ratio by measuring product of accounting ratio and retention ratio at 2.55 umol by immobilized metal-ion affinity chromatography; settings: dose 2.55 µmol
The reply should be a number, written without any unit.

Solved entries (count: 3):
* O=C(O)c1cc(/N=N/c2ccc(S(=O)(=O)Nc3ccccn3)cc2)ccc1O | 0.79
* CC1(C)Cc2c(-c3ccccc3)c(-c3ccc(Cl)cc3)c(CC(=O)O)n2C1 | 0.37
* C[C@H](N[C@@H](CCc1ccccc1)C(=O)O)C(=O)N1CCC[C@H]1C(=O)O | 0

Task: Requested field: Ratio. Item: NCCCC[C@H](N[C@@H](CCc1ccccc1)C(=O)O)C(=O)N1CCC[C@H]1C(=O)O
Output: 0

Task: Further, for O=c1cccccc1O ?
Output: 0
